Entries and their pKd values follow.
# TESTED_ON: T1, PUF4 RNA-binding domain (Saccharomyces cerevisiae, UniProt P25339 537-888)
# T1 sequence: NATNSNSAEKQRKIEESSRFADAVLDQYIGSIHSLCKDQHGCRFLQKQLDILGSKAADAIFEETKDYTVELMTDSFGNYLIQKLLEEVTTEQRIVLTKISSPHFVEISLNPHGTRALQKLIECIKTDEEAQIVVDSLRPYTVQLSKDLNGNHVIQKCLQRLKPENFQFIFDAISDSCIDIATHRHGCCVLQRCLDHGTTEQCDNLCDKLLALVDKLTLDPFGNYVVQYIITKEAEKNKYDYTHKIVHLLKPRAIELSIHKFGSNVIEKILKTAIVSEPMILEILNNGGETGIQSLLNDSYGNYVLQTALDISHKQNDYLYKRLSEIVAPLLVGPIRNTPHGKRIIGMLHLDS
# ASSAY_NOTES: Mg; RNA-MaP; 20 mM Na-HEPES pH 7.4, 30 mM KOAc, 0.75 mM MgCl2, 0.1% Tween-20, 5% glycerol, 0.1 mg/mL BSA, 2 mM DTT; 25 C; 0.0125-409.6 nM protein
# COND: tags: N-His6-TEV cleaved; C-SNAP kept, Cy3B-labelled; label: tethered on chip by stalled RNA polymerase
pKd: −log10 of the molar value.
VALUE_KIND: pKd

[[record]]
binder = "Ic_S4_P4E.1_K4.1_C4.1_H4.1_A4.1_[T5C]_[A6T]_[T7C]_F4.1_[T8A]_[A9G]_T4.1 (ssRNA) RNA: UUUGACAACUGAUCGUUCUUUCUUGUACUCAGUUCUUUCUCGAUCAGUUGUCUUU"
value_kind = "pKd"
val = 6.09

[[record]]
binder = "UCUCUUUGUAAUCACCUCUCUU (ssRNA) [Ic_S1_P5E.1_K5.1_C5.1_H5.1_A5.1_[T5A]_[A7C]_F5.1_[T8A]_[T9C]_[A10C]_T5.1]"
value_kind = "pKd"
val = 5.92

[[record]]
binder = "Ia_S4_P4E.1_K4.1_C4.1_H4.1_A4.1_[A6C]_F4.1_T4.1 (ssRNA) RNA: UUUGACAACUGAUCGUUCUUUCUUGUAUCUUAUUCUUUCUCGAUCAGUUGUCUUU"
value_kind = "pKd"
val = 8.66

[[record]]
binder = "UCUCUUUGUAACAUUCUCUU (ssRNA) [Ic_S1_P3E.1_K3.1_C3.1_H3.1_A3.1_[T5A]_[A6C]_F3.1_[T7A]_[A8T]_T3.1]"
value_kind = "pKd"
val = 7.82

[[record]]
binder = "UCUCUUUGUAGCUUAUCUCUU (ssRNA) [Ic_S1_P4E.1_K4.1_C4.1_H4.1_A4.1_[T5G]_[A6C]_F4.1_T4.1]"
value_kind = "pKd"
val = 7.54

[[record]]
binder = "UCUCUUAAUAUAUUAUUACCUCUCUU (ssRNA) [Id_ii_S1_P5E.3_K5.2_C5.2_[C-2A]_[T-1A]_H5.2_A5.1_F5.1_T5.2_[T11C]_[A12C]]"
value_kind = "pKd"
val = 6.18

